- protocol.description: soluble on expression in E. coli; label from the status in PepcDB or PDB records
observation.type: soluble on expression in E. coli

* MSLNILIIAFEGIEGSGKTSHLEATKKYLEKEGYGVVTFGLQMSKLIGDRIAQVKRNIIFERRTLFLAYVTDLADQIENYVKPSIDSGFIALADGYTLTLTSWGLTRGLEKEWIDDVLSMLPKPSISLPLISTPDEIVRRIIKKRGYLDPLETGIDICIKEDTFEAYIDYINRFQEALMSISSRENIIYTDKEFDEVQKEIVRRIDNITEGHHHHHH | soluble
* GPLGSMSGPVPSRARVYTDVNTHRPREYWDYESHVVEWGNQDDYQLVRKLGRGKYSEVFEAINITNNEKVVVKILKPVKKKKIKREIKILENLRGGPNIITLADIVKDPVSRTPALVFEHVNNTDFKQLYQTLTDYDIRFYMYEILKALDYCHSMGIMHRDVKPHNVMIDHEHRKLRLIDWGLAEFYHPGQEYNVRVASRYFKGPELLVDYQMYDYSLDMWSLGCMLASMIFRKEPFFHGHDNYDQLVRIAKVLGTEDLYDYIDKYNIELDPRFNDILGRHSRKRWERFVHSENQHLVSPEALDFLDKLLRYDHQSRLTAREAMEHPYFYTVVKDQARMG | soluble

###

- protocol.description: soluble on expression in E. coli; label from the status in PepcDB or PDB records
observation.type: soluble on expression in E. coli

• NIQGRTARQTDYLFQIKKHDITFGIGPAGTGKTYLAVACAVDALERELVSRVILVRPAVEAGERLGFLPGDMVQKVDPYLRPLYDALYDLMGFEKVSKHFERGIIEIAPLAFMRGRTLNQSFIILDEAQNTTAEQMKMFLTRIGFGSKAVITGDITQIDLPKHQKSGLVEAERVLKNVNGIAFTRFRTEDVVRHPLVQRIVDAYEKYAPDK = not soluble
• MCGRFAQSQTREDYLALLAEDIERDIPYDPEPIGRYNVAPGTKVLLLSERDEHLHLDPVFWGYAPGWWDKPPLINARVETAATSRMFKPLWQHGRAICFADGWFEWKKEGDKKQPFFIYRADGQPIFMAAIGSTPFERGDEAEGFLIVTAAADQGLVDIHDRRPLVLSPEAAREWMRQEISGKEASEIAASGCVPANQFSWHPVSRAVGNVKTRARSLEHHHHHH = not soluble

###

- protocol.description: soluble on expression in E. coli; label from the status in PepcDB or PDB records
observation.type: soluble on expression in E. coli

• TLPFRIGHGFDLHRLEPGYPLIIGGIVIPHDRGCEAHSDGDVLLHCVVDAILGALGLPDIGQIFPDSDPKWKGAASSVFIKEAVRLMDEAGYEIGNLDATLILQRPKISPHKETIRSNLSKLLGADPSVVNLKAKTHEKVDSLGENRSIAAHTVILLMKK = soluble
• SADSEADKPLRKISAAFKKLAIIVNSPNPEVPVTQFSHACSLVSPLFGCLGIAFKFAEMDYVAKVDDLVRASSSISTLVVMMDKDIEADCVRKAGSHTRNLLRVKRGLDMVKVLFEQIIASEGDNSLKDPATKSYAQVFAPHHGWAIRKAVSLGMYALPTRAHLLNMLKEDEAAAKIHMQSYVNSSAPLITYLDNLFLSKQLGIDW = soluble

###

- protocol.description: soluble on expression in E. coli; label from the status in PepcDB or PDB records
observation.type: soluble on expression in E. coli

- KRRFELRGIVNNISVYDDFAHHPTAIAKTLAGVRAKLSQQESEQEQVGRIFAVLEPRSNTMRSGVHKESLPKSLIDADQVFIYQGEQVTWSVSDLIKQCKPACQVEDNVERLVESIAQQAQAGDIIVVMSNGGFADIHNKLLNRLANIPVPLEDA: not soluble
- MVFVKTLHRTLFLEVAANEDVLSIKQKIEAAEGIPAEEQRLCYAGRQLEDSDCGIDSEATIYVNLELLGGAKKRKKKVYTTPKKNKRKPKKVKLAVLKYYKIDENGKITRLRKECQQPSCGGGVFMAQHANRHYCGRCHDTLVVDTATAAATSGEKGGKKGKK: not soluble
- MVALFPSSPAEDLLAEGPCVMTGKGLHQLLLDRWGYSYGLQLRRTQGKIFLQIMWKYLEQASFPMDEGEYFSHLNEVASYLVALGAAEAIAQTIRETREKPRLGKAVSIPIELGARASEWFPDLEHHHHHH: soluble
- MSRRLFGRLREALNRASEHIARGIVDTLAYKELKPEDLEPVLDDILIDLVESDVALEAAESIVAGVKEGLTGYRVRRGEPVEKVVRDALRKALLTLLDPGPRPDLAAEARRRCGGRPLVILFLGVNGTGKTTTIAKVAYMLRKAGVTPVIAAADTFRAGAQEQLAVHAEKLGVPIVRGRYGGDPASVAYDAVKHAESRGFCAVLVDTAGRMHVDSNLVEELRKIVRVVKPDYKILVVDSLTGNDAVEQARLFDEAVGVDGVIVTKVDADPKGGTLVSVAHAIRKPILYIGTGQRYEDLRPFDPQKIVDQLLG: soluble
- MEDFKKIVNNIRLKDTFDFKLAAFPNQNYDQLLPSQIYKNYYQGIEIQQHKYQNELDIKIINFLYPDGDFGSANKNGTLKLSLMLTDKKNNQVYYKLLEVSGFKSNPYGVDLEHHHHHH: not soluble

###

- protocol.description: soluble on expression in E. coli; label from the status in PepcDB or PDB records
observation.type: soluble on expression in E. coli

* MGSDKIHHHHHHMPIITSYITQDDGTTTVVISGVELGNKETLLLDNGFDVEVDVSVIDPFQITGKQRRKIFALVKDIEEHTGQPMDYMRHMFIEFVRTYYGYDERISLSNCTRTQASQIIEATLDWTFYNDIPLSYKTSNLLKQDKSFLYWSTVNRNCVICGKPHADLAHYEAVGRGMNRNKMNHYDKHVLALCREHHNEQHAIGVKSFDDKYHLHDSWIKVDERLNKMLKGEKKE | not soluble
* MAHHHHHHMTKVWMPWAYQALLAYAHSGAAHGQANLWLKGQTSTPLQRICDPVPNLLISQSSQGGQRALWLLHRPESVLGLVVSPQWQGESGDHELCDASVVSKRKIVRVMKHLHSLPFRVAGSSPLRPPMVVHKNHLVGWRIDGKAAPLYAHTLDQLAKLKPTQFKTIEPKNAFICRTYYEWDNWKEVSMEPGWTWHHVDEEIANNILDGTLTFDGLRATATDTP | not soluble
* MSLDRASHLKMSSEERRAHRDGTVWQLYEWQQRQQFRHGSPTAPICLGSPEFTDQGRSRSMLEVPRSISVPPSPSDIPPPGPPRVFPPRRPHTPAERVTVKPPDQRRSVDISLGDSPRRARGHAVKNSSHVDRRSMPSMGYMTHTVSAPSLHGKSADDTYLQLKKDLEYLDLKMTGRDLLKDRSLKPVKIAESDTDVKLSIFCEQDRVLQDLEDKIRALKENKDQLESVLEVLHRQMEQYRDQPQHLEKIAYQQKLLQEDLVHIRAELSRESTEMENAWNEYLKLENDVEQLKQTLQEQHRRAFFFQEKSQIQKDLWRIEDVTAGLSANKENFRILVESVKNPERKTVPLFPHEGHHHHHH | soluble
* MSNLNNLTSKILNDAEEKKKYILADAEAQKDKIISKKTNRAEADKEEIITKANIEAEVKKARIISNAKLSVRNDMLRAKQDVISKVFNEAIEKLQNLSNGDYKYYVISTLDSLELEGTEVIIINEKDKDIFSNEFLEALNKELESKGKKGSITLNMEGKFNGGFILDRNGIQINNTFEALINSLRGELEFEVNKVLFDLEHHHHHH | soluble
* MSLSDTIPVFDGHNDFLLRLLRNPANRETIWLKGDGTGHLDLPRMKEGGFAGGFFAIYVPSPQAHDAAHFEAMMDAPPFELPLPPMIRAEQAQPVALAMAGHLLWMERAARGRFKVCRTAAEVRSCHADGIVSGIMHMEGAEAIGADLDALHLFHSLGLRSLGPVWSRPTVFGHGVPFRFPGSPDTGEGLTEAGRRLVAECNRLKIMLDLSHLNEKGFDDVARLSDAPLVATHSNAHAVTPSTRNLTDRQLAMIRESRGMVGLNFATSFLREDGRRSAEMGWEPVLRHLDHLIDRLGEDHVGMGSDFDGATIPQGIADVTGLPALQAAMRAHGYDEPLMRKLCHENWYGLLERTWGEGHHHHHH | soluble
* MGHHHHHHSHMGQFYEAESCLVEAGRLPAGQRRFAHFPGLASELLLTGLPLELIDGSTLSMPVRWVTGLLKELHVRLERRSRLVVLSTVGVPGTGKSTLLNTMFGLRFATGKSCGPRGAFMQLITVAEGFSQDLGCDHILVIDSGGLIGGALTSAGDRFELEASLATLLMGLSNVTVISLAETKDIPAAILHAFLRLEKTGHMPNYQFVYQNLHDVSVPGPRPRDKRQLLDPPGDLSRAAAQMEKQGDGFRALAGLAFCDPEKQHIWHIPGLWHGAPPMAAVSLAYSEAIFELKRCLLENIRNGLSNQNKNIQQLIELVRRL | not soluble
* MGSDKIHHHHHHMKKEADMIHPIANAPCSWGVDDPKNPNLPAWATVLKEAAQAGYRSIELGPWGYLPSDPASLRAALEQHQLSLVAGTIFDDLVSEAHFPTLVALTHQICRNLSQVAAAEPIPGRPFQPPYLVIIDFGNPERARFAGRGALAPRLNDKDWQRMMEHIIALSTLAWQEYGVRAVIHPHAGGSIEFADEIERLANDIPHDVAGLCLDTGHLYYAGMDPLDWLDRYYHRLDYLHFKDVDPQVYQRAIHEGIDFFTACAEGVMCPLGSGAIDYPAIKDFLARRGYQGWITIEQERDPRHAAGSLQAVTESLRYLRDVGF | not soluble
* MAQHEVITRGGDAFLLKLRESALSSGSMSEEQFFLLIGISSIHSDRVILAMKDYLVSGHSRKDVCEKYQMNNGYFSTTLGRLTRLNVLVARLAPYYTDSVSAIAEAASL | soluble
* MAHHHHHHMALTTDYSKLGELIHQSPESPSLYNQAKYHTQKQNDSFYEIKRFMCLGSTIPDDAQYSVDLLIDRGDKKCRDVLAESFRVEGYKYATTNNDDNVRFAKLFFDHYANMFYCMHLHGDDRKCNSLFRHFYEAVGKQTR | not soluble
* MGSDKIHHHHHHMAQIISINDNQRLQLEPLEVPSRLLLGPGPSNAHPSVLQAMNVSPVGHLDPAFLALMDEIQSLLRYVWQTENPLTIAVSGTGTAAMEATIANAVEPGDVVLIGVAGYFGNRLVDMAGRYGADVRTISKPWGEVFSLEELRTALETHRPAILALVHAETSTGARQPLEGVGELCREFGTLLLVDTVTSLGGVPIFLDAWGVDLAYSCSQKGLGCSPGASPFTMSSRAIEKLQRRRTKVANWYLDMNLLGKYWGSERVYHHTAPINLYYALREALRLIAQEGLANCWQRHQKNVEYLWERLEDIGLSLHVEKEYRLPTLTTVCIPDGVDGKAVARRLLNEHNIEVGGGLGELAGKVWRVGLMGFNSRKESVDQLIPALEQVLR | soluble
* MRCPKCNYHKSSVVDSRQAEDGNTIRRRRECEQCHTRFTTFERVEELPLLVIKKDGTREQFSRDKILNGVVQSAQKRPVSSTDIENVISRIEQEVRTTYENEVSSTAIGNLVMDELAELDEITYVRFASVYKSFKDVDEIEELLQQITNRVRGKKKRLNNDETN | not soluble

Origin of values: the DeepSol protein solubility set
